- experiment.description: PK of single agents versus fixed dose combinations, single dose in healthy volunteers
- Format: in vivo, human
- assay.setup: human, in vivo; Arm 1 (reference): single agents, single oral dose; median [range]
endpoint.name: Tmax (h)

compound: CC(C)OC(=O)C(C)N[P@](=O)(OC[C@@]1(F)O[C@@H](n2ccc(=O)[nH]c2=O)[C@](C)(O)[C@@H]1O)Oc1ccccc1 (stereo in doubt) [Compound (III)]
endpoint.name: Tmax
reported: 2

---

- experiment.description: Phase-1 drug-drug interaction study, plasma PK in healthy volunteers
- assay.setup: DDI study results

molecule: C[C@H](NP(=O)(O)OC[C@@]1(F)O[C@@H](n2ccc(=O)[nH]c2=O)[C@](C)(O)[C@@H]1O)C(=O)O [Compound A-3]
exposure increase caused by Odalasvir, ×: 2.6
--
molecule: CC(C)OC(=O)C(C)N[P@](=O)(OC[C@@]1(F)O[C@@H](n2ccc(=O)[nH]c2=O)[C@](C)(O)[C@@H]1O)Oc1ccccc1 (stereo in doubt) [Compound (III)]
exposure increase caused by Odalasvir, ×: 4
--
molecule: COc1ccc2c(O[C@@H]3C[C@H]4C(=O)N[C@]5(C(=O)NS(=O)(=O)C6CC6)C[C@H]5/C=C\CCCCN(C)C(=O)[C@@H]4C3)cc(-c3nc(C(C)C)cs3)nc2c1C [SMV, Simeprevir, reference compound]
exposure increase caused by Odalasvir, ×: 1.6
--
molecule: C[C@]1(O)[C@H](n2ccc(=O)[nH]c2=O)O[C@](F)(CO)[C@H]1O [Compound A-1]
exposure increase caused by Odalasvir, ×: 1.5
